Reference source for all entries: ChEMBL document CHEMBL1201862

System: SK-MEL-28
protocol text: NCI tumour cell line growth inhibition, 48 h
Activity calls are given as the source filed them. No stated cut-off is given here; in the data, active = GI50 up to about 1.1 µM and inactive = higher.
readout kind: GI50

Query :: Any idea what its GI50 is? The compound is O=S(=O)(O)c1cc(/N=[N+](\[O-])c2cc(S(=O)(=O)O)c3ccccc3c2)cc2ccccc12
Result :: > 100 µM (inactive)

Query :: Any idea what its GI50 is? The compound is CN(C)CCNC(=O)c1cccc2c(NCC(=O)O)c3ccccc3nc12
Result :: 20.6 µM (inactive)

---

Test system: SR
protocol text: NCI tumour cell line growth inhibition, 48 h
Active and inactive are the calls of the source. Cut-off read from the data, not from the text of the source: active = GI50 up to about 1.1 µM and inactive = higher.
Response enum: class 1 (active), class 0 (inactive)

# count of solved cases: 5
[
  {
    "compound": "CC(=O)C1(C)CC(C#N)(C#N)C(C#N)=C1N (stereo unspecified)",
    "target entity": "SR",
    "cat": "class 0"
  },
  {
    "compound": "COC(=O)C1=C(O)C(C(=O)OC)C2CC(=O)CC1C2(C)C (stereo unspecified)",
    "target entity": "SR",
    "cat": "class 0"
  },
  {
    "compound": "C[n+]1c2ccccc2c(NC(CCC(N)=O)C(=O)O)c2ccccc21 (stereo unspecified)",
    "target entity": "SR",
    "cat": "class 0"
  },
  {
    "compound": "CCOc1cc(NC(C)=O)ccc1C(=O)NN1C(=O)/C(=C/c2cc(OC)c(OC)c(OC)c2)N=C1c1ccccc1",
    "target entity": "SR",
    "cat": "class 0"
  },
  {
    "compound": "O=c1[nH]c2ccsc2c(=O)n1COCc1ccccc1",
    "target entity": "SR",
    "cat": "class 0"
  }
]

Query :: Name the outcome recorded for C=C1C(C[C@@H]2O[C@H]3C[C@H]4O[C@@]5(C[C@@H]6O[C@]7(C[C@H](C)[C@@H]8O[C@@H]9CC(C(O)CO)O[C@@H]9C[C@@H]8O7)C[C@H](C)[C@@H]6O5)C[C@H]4O[C@H]3[C@H](C)[C@H]2O)O[C@@H](CC[C@@H]2O[C@@H](CC[C@@]34CC5O[C@H]6C(O[C@H]7CC[C@H](CC(=O)OC)O[C@@H]7[C@@H]6O3)[C@H]5O4)CC2=C)C[C@H]1C (stereo partly specified) in the assay.
Result :: class 1

Query :: Name the outcome recorded for CC(=O)N[C@@H](Cc1ccc(O)cn1)C(=O)NC1CCCCC1 in the assay.
Result :: class 0

Query :: Name the outcome recorded for CC1=NN(c2nc(N)nc(CCl)n2)CC1 in the assay.
Result :: class 0

Query :: Name the outcome recorded for CCOC(=O)c1cc2c([nH]1)c(O)cc1c2ccn1Cc1ccccc1 in the assay.
Result :: class 1

Query :: Name the outcome recorded for CCN(CC)CCC(=O)c1ccc(Oc2ccc(Cl)cc2)cc1 in the assay.
Result :: class 0
